experimental.target: FRMPD3, Q5JV73
Sequence (Q5JV73 12-100): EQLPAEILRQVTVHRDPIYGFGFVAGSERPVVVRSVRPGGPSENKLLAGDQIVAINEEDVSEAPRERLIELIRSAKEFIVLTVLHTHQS
assay.remarks: holdup assay
Design: key: below the threshold = too weak to quantify, mostly under pKd 3.1 to 4
recorded.conditions: plain residues with an end cap or a label only (N-terminal biotin on a linker: ahx)

| binder | pKd |
| --- | --- |
| QPRTWLQSPV [RTKN, Q9BST9] | below the threshold |
| TQKFRASTAL [FRMPD1, Q5SYB0] | below the threshold |
| APSRKLNTEI [TIAM1, Q13009] | below the threshold |
| EKQAKGDTEF [CACYBP, Q9HB71] | 3.81 |

Where do these numbers come from? They come from paper PMC9482650.
